target: human TLR7 (Homo sapiens); construct: host or cells: HEK-Blue TLR7 (HEK293-derived); assay: HEK-Blue TLR7 NF-κB SEAP reporter assay; format: cell-based; conditions: HEK-Blue TLR7 cells, 18 h, eight concentrations (1 nM to 10 μM), mean ± SEM
Sequence (Q9NYK1 27-1049): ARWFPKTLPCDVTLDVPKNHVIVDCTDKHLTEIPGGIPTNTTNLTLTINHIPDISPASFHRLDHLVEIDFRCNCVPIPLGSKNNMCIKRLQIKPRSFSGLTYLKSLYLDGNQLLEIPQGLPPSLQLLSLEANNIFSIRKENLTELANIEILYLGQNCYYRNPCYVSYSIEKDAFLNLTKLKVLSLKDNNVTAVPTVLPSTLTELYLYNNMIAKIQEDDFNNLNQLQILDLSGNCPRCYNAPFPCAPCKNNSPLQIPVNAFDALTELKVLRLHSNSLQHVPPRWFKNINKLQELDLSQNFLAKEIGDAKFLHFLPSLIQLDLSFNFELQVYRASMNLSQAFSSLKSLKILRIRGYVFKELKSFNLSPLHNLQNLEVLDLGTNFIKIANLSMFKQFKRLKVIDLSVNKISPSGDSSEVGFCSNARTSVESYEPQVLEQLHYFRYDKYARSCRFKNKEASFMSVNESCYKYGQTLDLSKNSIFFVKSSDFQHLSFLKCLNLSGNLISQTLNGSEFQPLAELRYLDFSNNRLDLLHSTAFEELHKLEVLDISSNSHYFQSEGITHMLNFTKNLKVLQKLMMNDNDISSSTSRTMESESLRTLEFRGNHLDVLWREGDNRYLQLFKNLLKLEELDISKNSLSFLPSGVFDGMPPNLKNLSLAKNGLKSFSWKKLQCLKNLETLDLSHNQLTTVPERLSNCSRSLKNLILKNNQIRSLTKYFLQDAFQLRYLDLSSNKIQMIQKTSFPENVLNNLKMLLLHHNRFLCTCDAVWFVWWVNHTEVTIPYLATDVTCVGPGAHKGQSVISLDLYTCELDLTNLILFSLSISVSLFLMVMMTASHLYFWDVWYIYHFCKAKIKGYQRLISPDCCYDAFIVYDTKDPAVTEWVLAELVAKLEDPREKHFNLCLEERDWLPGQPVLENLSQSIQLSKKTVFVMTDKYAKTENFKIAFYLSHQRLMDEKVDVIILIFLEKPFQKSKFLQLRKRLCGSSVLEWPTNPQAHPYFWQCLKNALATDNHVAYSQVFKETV
The entries below are paired with their reported EC50.
metric_name: EC50 (nM)

compound="CCCCOc1nc(N)c2nc(O)n(Cc3ccc(C(=O)O)cc3)c2n1 [compound 4, reference compound]" modifier_sign== recorded_number=226
compound=CCCCOc1nc(N)c2nc(O)n(Cc3ccc(C(=O)NCCOCCNC(=O)CC[C@@H](NC(=O)[C@@H](NC(=O)CNC(=O)/C=C/c4ccc(O)c(OC)c4)C(C)C)C(=O)OCC)cc3)c2n1 modifier_sign== recorded_number=21.4
compound=CCCCOc1nc(N)c2nc(O)n(Cc3ccc(C(=O)NCCCCCC(=O)Oc4ccc(/C=C/C(=O)NCC(=O)N[C@H](C(=O)N[C@H](CCC(=O)OCC)C(=O)OCC)C(C)C)cc4OC)cc3)c2n1 modifier_sign== recorded_number=98.6
compound=CCCCOc1nc(N)c2nc(O)n(Cc3ccc(C(=O)NCCOCCOCCOCCn4cc(CNC(=O)CC[C@@H](NC(=O)[C@@H](NC(=O)CNC(=O)/C=C/c5ccc(O)c(OC)c5)C(C)C)C(=O)OCC)nn4)cc3)c2n1 modifier_sign== recorded_number=391
compound=CCOCc1nc2c(NC(=O)CCCCCNC(=O)CC[C@@H](NC(=O)[C@@H](NC(=O)CNC(=O)/C=C/c3ccc(O)c(OC)c3)C(C)C)C(=O)OCC)nc3ccccc3c2n1CC(C)(C)O modifier_sign=> recorded_number=10000

Source of measurements: paper PMC11583123
